# Test system: recombinant NL-Rluc virus
# experiment description: Inhibition of HIV replication (NL-Rluc virus, luciferase readout in MT-2 cells)
# Assay type: cell-based
# test context: Human immunodeficiency virus 1, MT2, 120 h; MT-2 cells infected with NL-RLuc virus, 5 days of incubation, luciferase; serum condition not specified; read-out: EC50
measured parameter: pEC50
One number for each entry, as −log10 of the molar value.

State pEC50 (recombinant NL-Rluc virus) of `Cc1ccc(OC(=O)Nc2cc3nc(C)c([C@H](OC(C)(C)C)C(=O)O)c(-c4cc(F)c5c(c4C)CCCO5)n3n2)cc1` .
5.19
